B1: TPR 5TU (parent)
chain: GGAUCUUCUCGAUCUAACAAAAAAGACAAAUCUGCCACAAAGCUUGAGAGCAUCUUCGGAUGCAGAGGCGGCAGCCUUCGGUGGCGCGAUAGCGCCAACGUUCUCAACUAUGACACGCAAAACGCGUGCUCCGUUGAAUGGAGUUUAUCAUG

Variants of: B1
Assay Procedure: polymerase ribozyme fitness, log enrichment relative to wild type (log ratio); higher = more active; in vitro selection for triplet polymerase activity
Variants at the floor of the assay were thinned out.
Endpoint Name: polymerase ribozyme fitness (log ratio)

Here are 2 variants. What values of polymerase ribozyme fitness (log ratio) were reported for them?
1. A39U U53C C108G C149U
2. U45A G88C

Solution:
1: ≤ -4.2; 2: ≤ -4.2

Here are 4 variants. What values of polymerase ribozyme fitness (log ratio) were reported for them?
1. U6A U61A C93A
2. A29G A60C G80A A121U G141U
3. A21U A22U G42A G70C C93U G140C G152U
4. U4C C5A C10U U33A G88C C116U G140A

Solution:
1. ≤ -4.2
2. ≤ -4.2
3. ≤ -4.2
4. ≤ -4.2
